Taken from paper PMC5199138.

test: Plasma and urine pharmacokinetics; type: in vivo, human; details: human, plasma, intravenous, 2.5 mg/m2, AUC0–24, daily trial, D1, 2.5 mg/m^2 over 1 h, N=1
observed-property: AUC(0-t) (ng·h/mL)
Give just the numeric value; ng·h/mL need not be written.

Task item: Which value of AUC(0-t) has been reported for `COc1cc2c3c(n(CCCN4CCOCC4)c(=O)c2cc1OC)-c1cc2c(cc1C3=O)OCO2` in the records?
Reply: 547

====

experiment: Plasma and urine pharmacokinetics; assay type: in vivo, human; conditions: human, plasma, intravenous, 60 mg/m2, Cmax, weekly trial, W1, 60 mg/m^2 over 3 h, N=6; SD of geometric mean in parenthesis
observed-property: Cmax (ng/mL)
# unit: ng/mL | format: bare number

Task item: Quick one: Cmax for COc1cc2c3c(n(CCCN4CCOCC4)c(=O)c2cc1OC)-c1cc2c(cc1C3=O)OCO2 [indotecan] ?
Reply: 1270

====

assay: Plasma and urine pharmacokinetics; assay type: in vivo, human; conditions: human, plasma, intravenous, 135 mg/m2, Cmax, weekly trial, W3, 135 mg/m^2 over 3 h, N=7; SD of geometric mean in parenthesis
observed-property: Cmax (ng/mL)
API: value field is a number in ng/mL; no unit string.

Task item: Which Cmax is reported for this compound? `COc1cc2c3c(n(CCCN4CCOCC4)c(=O)c2cc1OC)-c1cc2c(cc1C3=O)OCO2`
Reply: 1930

====

assay: Plasma and urine pharmacokinetics; type: in vivo, human; details: human, plasma, intravenous, 60 mg/m2, Cmax, daily trial, D5a, 60 mg/m^2 over 1 h, N=6; SD of geometric mean in parenthesis
observed-property: Cmax (ng/mL)
Write the answer as a number in ng/mL, unit excluded.

Task item: Given the entry `COc1cc2c3c(n(CCCN4CCOCC4)c(=O)c2cc1OC)-c1cc2c(cc1C3=O)OCO2` , report its measured Cmax.
Reply: 1610

====

assay: Plasma and urine pharmacokinetics; format: in vivo, human; conditions: human, plasma, intravenous, 60 mg/m2, AUC0–24, daily trial, D5a, 60 mg/m^2 over 1 h, N=6; SD of geometric mean in parenthesis
observed-property: AUC(0-t) (ng·h/mL)
Your answer should be a plain number; it is taken to be in ng·h/mL.

Task item: Find the recorded AUC(0-t) belonging to COc1cc2c3c(n(CCCN4CCOCC4)c(=O)c2cc1OC)-c1cc2c(cc1C3=O)OCO2 [indotecan] and report it.
Reply: 12800

====

test: Plasma and urine pharmacokinetics; type: in vivo, human; settings: human, plasma, intravenous, 135 mg/m2
observed-property: AUC(0-inf) (ng·h/mL)
Your answer is read as ng·h/mL, so omit the unit and give the number.

Task item: What AUC(0-inf) value was documented for this compound, COc1cc2c3c(n(CCCN4CCOCC4)c(=O)c2cc1OC)-c1cc2c(cc1C3=O)OCO2 [indotecan] ?
Reply: 70800
